Below: a set of entries, each annotated with reported herbicidal effect rating, CYPSE.
Test system: Cyperus serotinus, Rottb.
Protocol summary: Preemergence weed control under flooded paddy conditions, CYPSE (Flatsedge); further: meaning of each grade not given here
Assay type: in vivo
Experimental context: Rate 0.2500 kg/ha, preemergence, rated three to four weeks after treatment
Just the number, please.

Illustrative cases are given below, each with its answer.
>>> df
                                   compound                        parameter  test_value
0  CONC(=O)c1nsc2ccc(-n3c(=O)cc(C(F)(F)F)n(C)c3=O)cc12  herbicidal effect rating, CYPSE         4.0
1  CC(=O)NCCOC(=O)c1nsc2ccc(-n3c(=O)cc(C(F)(F)F)n(C)c3=O)cc12  herbicidal effect rating, CYPSE         5.0
2  Cn1c(C(F)(F)F)cc(=O)n(-c2cc3c(CC#N)nsc3cc2F)c1=O  herbicidal effect rating, CYPSE         8.5
3  Cn1c(C(F)(F)F)cc(=O)n(-c2ccc3snc(C(=O)NS(=O)(=O)c4ccc5ccccc5c4)c3c2)c1=O  herbicidal effect rating, CYPSE         0.0
4  CCCCCCCOC(=O)c1nsc2ccc(-n3c(=O)cc(C(F)(F)F)n(C)c3=O)cc12  herbicidal effect rating, CYPSE         6.0
5  CC(C)S(=O)(=O)NC(=O)c1nsc2ccc(-n3c(=O)cc(C(F)(F)F)n(C)c3=O)cc12  herbicidal effect rating, CYPSE         9.0

Data request: Need herbicidal effect rating, CYPSE, item Cn1c(C(F)(F)F)cc(=O)n(-c2ccc3snc(C(=O)NS(=O)(=O)c4ccccc4)c3c2)c1=O
Data returned: 0.0

Data request: What would you report for CN(C(=O)c1nsc2ccc(-n3c(=O)cc(C(F)(F)F)n(C)c3=O)cc12)S(C)(=O)=O ?
Data returned: 9.0

Data request: What would you report for Cn1c(C(F)(F)F)cc(=O)n(-c2ccc3snc(C(Cc4ccccc4)S(C)(=O)=O)c3c2)c1=O (stereo not drawn) ?
Data returned: 0.0

Data request: What would you report for COc1ccccc1C=C(C#N)c1nsc2ccc(-n3c(=O)cc(C(F)(F)F)n(C)c3=O)cc12 ?
Data returned: 0.0

Data request: What would you report for C=CCOC(C)c1nsc2ccc(-n3c(=O)cc(C(F)(F)F)n(C)c3=O)cc12 (stereo not drawn) ?
Data returned: 8.0

Data request: What would you report for Cn1c(C(F)(F)F)cc(=O)n(-c2ccc3snc(C(=O)NS(=O)(=O)c4cccs4)c3c2)c1=O ?
Data returned: 0.0
